Target: IDO1 (Homo sapiens, UniProt P14902)
Construct: BxPC3 cells were seeded in phenol red-free RPMI 1640 medium; endogenous in cells; host or cells: BxPC3 cells stimulated with IFN-γ (50 ng/mL)
Sequence (P14902 whole entry): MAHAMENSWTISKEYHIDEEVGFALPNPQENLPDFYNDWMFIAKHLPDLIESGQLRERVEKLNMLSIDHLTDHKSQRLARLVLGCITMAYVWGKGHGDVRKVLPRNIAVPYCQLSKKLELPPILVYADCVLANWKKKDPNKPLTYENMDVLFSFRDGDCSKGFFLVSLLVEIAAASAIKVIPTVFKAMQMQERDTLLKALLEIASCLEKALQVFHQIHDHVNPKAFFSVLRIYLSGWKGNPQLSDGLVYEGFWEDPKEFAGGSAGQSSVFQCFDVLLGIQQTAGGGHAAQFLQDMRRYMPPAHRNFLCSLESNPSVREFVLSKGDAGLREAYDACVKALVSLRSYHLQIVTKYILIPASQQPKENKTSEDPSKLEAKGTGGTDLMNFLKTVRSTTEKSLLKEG
Experiment: IDO1 degradation in BxPC3 cells, IDO1 protein levels by immunoblotting;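 also: IDO1 bands on Western blots detected with fluorescent dye-labelled secondary antibodies and quantified by band intensity, values are means of n biological replicates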
Format: cell-based
Conditions: BXPC-3, BxPC3 cells, 50 ng/ml IFN-γ 24 h, washout, compound (100 nM) 24 h; maximum IDO1 degradation at 0.1 µM
recorded-metric: Dmax at 0.1 µM (%)

Reference set (5 entries):
CC(C)(C)c1ccc(S(=O)(=O)N2C[C@H]3C[C@H]4C[C@H](C4(C)C)[C@@]3(COC(=O)Nc3ccc(I)cc3)C2)cc1 [compound 11] ... 37
Cc1cc(C(C)(C)C(=O)O)ccc1S(=O)(=O)N1C[C@H]2C[C@H]3C[C@H](C3(C)C)[C@@]2(COC(=O)Nc2ccc(I)cc2)C1 [compound 70] ... 18
C#Cc1ccc(NC(=O)OC[C@]23CN(S(=O)(=O)c4ccc(C(C)(C)C(=O)O)cc4C)C[C@H]2C[C@H]2C[C@@H]3C2(C)C)cc1 [compound 75] ... 27
COc1cc(C(C)(C)C(=O)O)ccc1S(=O)(=O)N1C[C@H]2C[C@H]3C[C@H](C3(C)C)[C@@]2(COC(=O)Nc2ccc(I)cc2)C1 [compound 67] ... 0
C#Cc1ccc(NC(=O)OC[C@]23CN(S(=O)(=O)c4ccc(C(C)(C)C)cc4C)C[C@H]2C[C@H]2C[C@@H]3C2(C)C)cc1 [compound 71] ... 74

a. C#Cc1ccc(NC(=O)OC[C@]23CN(S(=O)(=O)c4ccc(C(C)(C)C(=O)O)cc4)C[C@H]2C[C@H]2C[C@@H]3C2(C)C)cc1 [compound 74]
b. CC(C)(C(=O)O)c1ccc(S(=O)(=O)N2C[C@H]3C[C@H]4C[C@H](C4(C)C)[C@@]3(COC(=O)Nc3ccc(I)cc3)C2)c(Cl)c1 [compound 69]
Please indicate which entry, a or b , has the lower recorded Dmax at 0.1 µM value. Lab log: write the label of the selected item as the result.
b

---

Molecular target: IDO1 (Homo sapiens, UniProt P14902)
Construct: BxPC3 cells were seeded in phenol red-free RPMI 1640 medium; endogenous in cells; host or cells: BxPC3 cells stimulated with IFN-γ (50 ng/mL)
Assay: Kyn assay in BxPC-3 cells (Kyn levels after IFN-γ and Trp);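 also: kyn levels expressed relative to DMSO-treated control cells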
Type: cell-based
Settings: BxPC-3 cells incubated with IFN-γ, Trp and the compounds for 48 h; read-out: Kyn assay IC50 ± SD
recorded-metric: IC50

Example entries and their recorded answers appear below.
CC1(C)[C@H]2C[C@@H]3CN(S(=O)(=O)c4ccccc4)C[C@]3(COC(=O)Nc3ccc(I)cc3)[C@@H]1C2 [compound 37] ... 1000 to 5000 nM
Cc1cccc(S(=O)(=O)N2C[C@H]3C[C@H]4C[C@H](C4(C)C)[C@@]3(COC(=O)Nc3ccc(I)cc3)C2)c1 [compound 40] ... 1000 to 5000 nM

# context switch: different compound, same IC50
If you can, please state the reported IC50 value of Cc1ccc(NC(=O)OC[C@]23CN(S(=O)(=O)c4ccccc4Br)C[C@H]2C[C@H]2C[C@@H]3C2(C)C)cc1 [compound 36] .
5000 to 10000 nM
